# System: BRCA2
# ASSAY_SUMMARY: 3' UTR reporter interaction score (median-centred robust z-score of log2 firefly/Renilla activity); higher = less repression of the 3' UTR reporter
# PARTICULARS: HEK293T; 48 h
PARAMETER_MEASURED: 3' UTR reporter interaction score
Lab note: record just the number, no unit beside it.

## Task What reported 3' UTR reporter interaction score corresponds to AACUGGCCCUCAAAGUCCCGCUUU on BRCA2?
## Result 0.335

## Task Let us now turn to AAACAAACAUGGUGCACUUCUUU
## Result -0.147

## Task Let us now turn to AUGUAUGUGUGCAUGUGCAUG
## Result -0.994

## Task Let us now turn to AUUCUGCAUUUUUAGCAAGU
## Result -0.0751

## Task Let us now turn to GAAGGCGCUUCCCUUUAGAGC
## Result 0.0383

## Task Let us now turn to UAGAUAAAAUAUUGGUACCUG
## Result 0.0137

## Task Let us now turn to UAAUCUCAGCUGGCAACUGUG
## Result 1.06

## Task Let us now turn to AAUAUUAUACAGUCAACCUCU
## Result -1.63

## Task Let us now turn to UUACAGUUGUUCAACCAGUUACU
## Result 1.74

## Task Let us now turn to UUGUACAUGGUAGGCUUUCAUU
## Result -0.0352

## Task Let us now turn to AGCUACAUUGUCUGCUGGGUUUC
## Result -0.328

## Task Let us now turn to UGAGAUGAAGCACUGUAGCUCA
## Result 1.09

## Task Let us now turn to UGUUUGCAGAGGAAACUGAGAC
## Result -0.0179

## Task Let us now turn to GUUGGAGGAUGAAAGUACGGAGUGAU
## Result -1.61

## Task Let us now turn to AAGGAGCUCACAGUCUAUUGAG
## Result -1.14

###

# System: NOTCH1
# ASSAY_SUMMARY: 3' UTR reporter interaction score (median-centred robust z-score of log2 firefly/Renilla activity); higher = less repression of the 3' UTR reporter
# PARTICULARS: HEK293T; 48 h
Quick rule for you: 3' UTR reporter interaction score at -0.2 or higher means fulfilled, lower means not fulfilled.

## Task Given the entry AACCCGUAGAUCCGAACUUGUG , answer whether its 3' UTR reporter interaction score meets or surpasses -0.2.
## Result not fulfilled

## Task Let us now turn to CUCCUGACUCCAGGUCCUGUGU
## Result fulfilled

## Task Let us now turn to UACGUCAUCGUUGUCAUCGUCA
## Result fulfilled

## Task Let us now turn to UGAGGUAGGAGGUUGUAUAGU
## Result not fulfilled

## Task Let us now turn to UGUCUUGCAGGCCGUCAUGCA
## Result fulfilled

## Task Let us now turn to UAUACAAGGGCAAGCUCUCUGU
## Result fulfilled

## Task Let us now turn to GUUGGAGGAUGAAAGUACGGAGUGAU
## Result not fulfilled

## Task Let us now turn to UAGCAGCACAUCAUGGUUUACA
## Result not fulfilled

###

# System: FBXW7
# ASSAY_SUMMARY: 3' UTR reporter interaction score (median-centred robust z-score of log2 firefly/Renilla activity); higher = less repression of the 3' UTR reporter
# PARTICULARS: HEK293T; 48 h
Quick rule for you: 3' UTR reporter interaction score at 0.6 or higher means criterion met, lower means criterion not met.

## Task Given the entry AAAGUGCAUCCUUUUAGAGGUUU , answer whether its 3' UTR reporter interaction score meets or surpasses 0.6.
## Result criterion met

## Task Let us now turn to UAAAGUGCUUAUAGUGCAGGUAG
## Result criterion not met

## Task Let us now turn to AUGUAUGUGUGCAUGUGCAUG
## Result criterion met

## Task Let us now turn to UAGUGCAAUAUUGCUUAUAGGGUUU
## Result criterion met

## Task Let us now turn to AACACACCUGGUUAACCUCUUU
## Result criterion not met

## Task Let us now turn to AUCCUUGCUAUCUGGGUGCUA
## Result criterion met

## Task Let us now turn to AGGAAGCCCUGGAGGGGCUGGAGGU
## Result criterion not met

## Task Let us now turn to AAAGUGCUUCCUUUUUGAGGG
## Result criterion met

## Task Let us now turn to ACUCCAUUUGUUUUGAUGAUGGA
## Result criterion not met

## Task Let us now turn to AAAAUGGUUCCCUUUAGAGUGUU
## Result criterion met

## Task Let us now turn to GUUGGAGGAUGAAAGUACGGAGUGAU
## Result criterion met

## Task Let us now turn to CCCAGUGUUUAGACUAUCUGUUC
## Result criterion not met

## Task Let us now turn to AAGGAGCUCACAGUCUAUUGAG
## Result criterion met

## Task Let us now turn to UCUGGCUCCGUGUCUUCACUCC
## Result criterion not met

###

# Test system: TP53
# ASSAY_SUMMARY: 3' UTR reporter interaction score (median-centred robust z-score of log2 firefly/Renilla activity); higher = less repression of the 3' UTR reporter
# PARTICULARS: HEK293T; 48 h
Quick rule for you: 3' UTR reporter interaction score at -0.006 or higher means true (1), lower means false (0).

## Task Given the entry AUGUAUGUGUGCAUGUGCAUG , answer whether its 3' UTR reporter interaction score meets or surpasses -0.006.
## Result true (1)

## Task Let us now turn to UUCAAGUAAUUCAGGAUAGGUU
## Result false (0)

## Task Let us now turn to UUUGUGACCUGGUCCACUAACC
## Result false (0)

## Task Let us now turn to UGUAAACAUCCUUGACUGGA
## Result false (0)

## Task Let us now turn to AUCAGCAAACAUUUAUUGUGUG
## Result true (1)

## Task Let us now turn to CUACAAAGGGAAGCACUUUCUC
## Result false (0)

## Task Let us now turn to AGGCACGGUGUCAGCAGGC
## Result false (0)

## Task Let us now turn to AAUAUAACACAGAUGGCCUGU
## Result true (1)

## Task Let us now turn to AACAUUCAUUGUUGUCGGUGGGUU
## Result false (0)

## Task Let us now turn to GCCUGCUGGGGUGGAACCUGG
## Result false (0)

## Task Let us now turn to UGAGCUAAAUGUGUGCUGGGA
## Result true (1)

## Task Let us now turn to UCACAGUGAACCGGUCUCUUUC
## Result true (1)

## Task Let us now turn to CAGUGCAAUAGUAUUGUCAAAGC
## Result false (0)

## Task Let us now turn to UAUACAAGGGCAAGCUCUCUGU
## Result false (0)

## Task Let us now turn to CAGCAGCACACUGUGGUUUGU
## Result false (0)

## Task Let us now turn to UAACAGUCUACAGCCAUGGUCG
## Result false (0)

## Task Let us now turn to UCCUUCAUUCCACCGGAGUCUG
## Result false (0)

## Task Let us now turn to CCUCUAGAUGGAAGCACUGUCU
## Result false (0)

## Task Let us now turn to AGGUUGACAUACGUUUCCC
## Result false (0)

## Task Let us now turn to AGUAUGUUCUUCCAGGACAGAAC
## Result true (1)

## Task Let us now turn to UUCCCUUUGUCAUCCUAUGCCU
## Result false (0)

## Task Let us now turn to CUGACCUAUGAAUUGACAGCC
## Result true (1)

## Task Let us now turn to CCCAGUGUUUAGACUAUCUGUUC
## Result false (0)

## Task Let us now turn to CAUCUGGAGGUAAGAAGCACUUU
## Result false (0)

## Task Let us now turn to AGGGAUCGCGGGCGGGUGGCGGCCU
## Result true (1)

## Task Let us now turn to ACUGCAGUGAAGGCACUUGU
## Result false (0)

## Task Let us now turn to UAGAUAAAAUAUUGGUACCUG
## Result true (1)

## Task Let us now turn to AGCUACAUCUGGCUACUGGGUCUC
## Result true (1)

## Task Let us now turn to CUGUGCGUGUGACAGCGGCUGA
## Result true (1)

## Task Let us now turn to UAUUGCUUAAGAAUACGCGUAG
## Result false (0)

## Task Let us now turn to UGAGUUGGCCAUCUGAGUGAG
## Result false (0)

## Task Let us now turn to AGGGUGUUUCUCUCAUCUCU
## Result true (1)

## Task Let us now turn to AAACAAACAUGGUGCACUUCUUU
## Result false (0)

## Task Let us now turn to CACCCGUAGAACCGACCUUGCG
## Result false (0)

## Task Let us now turn to UUGAAACAAUCUCUACUGAAC
## Result false (0)

## Task Let us now turn to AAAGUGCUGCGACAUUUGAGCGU
## Result false (0)

## Task Let us now turn to AAGUGCUUCCUUUUAGAGGGUU
## Result false (0)

## Task Let us now turn to GGUCCAGAGGGGAGAUAGG
## Result true (1)

## Task Let us now turn to UGAGCUGCUGUACCAAAAU
## Result false (0)

## Task Let us now turn to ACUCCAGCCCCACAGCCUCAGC
## Result false (0)

## Task Let us now turn to ACCAUCGACCGUUGAUUGUACC
## Result true (1)

## Task Let us now turn to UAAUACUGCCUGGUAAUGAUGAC
## Result false (0)

## Task Let us now turn to UCAGUCUCAUCUGCAAAGAAG
## Result false (0)

Reference source: the supplement of paper PMC5844555
